Record form. Attribute: BSA Background OD (A492). Fill in for each entry.
experimental_system: T1, bovine serum albumin (bovine, UniProt P02769 25-607)
T1 construct: also called BSA
T1 sequence (P02769 25-607 limits assumed): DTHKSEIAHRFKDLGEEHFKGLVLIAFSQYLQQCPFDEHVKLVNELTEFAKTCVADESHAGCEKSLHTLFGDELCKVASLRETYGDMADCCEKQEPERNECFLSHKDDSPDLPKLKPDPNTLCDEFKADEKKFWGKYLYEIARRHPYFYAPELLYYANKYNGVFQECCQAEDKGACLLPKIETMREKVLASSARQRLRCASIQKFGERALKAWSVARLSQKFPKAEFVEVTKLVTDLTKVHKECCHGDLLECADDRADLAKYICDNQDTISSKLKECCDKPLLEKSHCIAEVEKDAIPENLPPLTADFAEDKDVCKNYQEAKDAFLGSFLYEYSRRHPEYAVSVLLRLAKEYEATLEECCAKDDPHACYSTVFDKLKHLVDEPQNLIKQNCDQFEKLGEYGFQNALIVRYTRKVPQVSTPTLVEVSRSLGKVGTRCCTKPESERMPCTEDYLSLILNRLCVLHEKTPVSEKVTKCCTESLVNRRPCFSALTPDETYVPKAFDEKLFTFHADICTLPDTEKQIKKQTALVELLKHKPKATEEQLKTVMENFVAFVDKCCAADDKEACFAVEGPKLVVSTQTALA
assay_info: EIA, supernatant 1:25 captured on sheep anti-mouse IgG Fc, BSA in place of antigen
Description: Cell supernatant samples were analyzed for anti-GP73 antibodies by EIA. Sheep anti-mouse IgG Fc (Jackson Immunoresearch) was coated on 96 well micro-titer EIA plates at 1 μg/mL. After the capture reagent was coated on the solid phase, it was removed and the plates were blocked using a BSA/PBS block solution. […] Plates were read at 492 nm and the results were analyzed. […]

[[record]]
binder = "anti-GP73 monoclonal antibody 1A-3187 (antibody, V domains shown, Biotin labelled in some assays) VH: QGQLQQSGAELMKPGASVKISCKATGYTIRSYWIEWVKQRPGHGLEWIGEILPGSGNTNYNEKFKGTATFTADTSSNTVYLHLSSLTSEDSAVYYCANGRGSYRYHWFAYWGQGTLVTVSP VL: DIVLTQSPASLAVSLGQRATISCKASQSVDYDGDSYMNWYQQKPGQPPKVLIYAASNLESGIPARFSGSGSGTDFTLNIHPVEEEDAATYYCQQSNEDPYTFGGGTKLEMKR"
test_value = "0.11 OD (A492)"

[[record]]
binder = "anti-GP73 monoclonal antibody 1B-4863 (antibody, V domains shown, Biotin labelled in some assays; also called mAb 1B-4863; 1B-4863-Bt) VH: QVQLKESGPGLVAPSQSLSITCTVSGFSLTSYGVHWVRQSPGKGLEWLGVIWTGGSTNYNSALMSRLSISKDNSESQVFLKVNSLQTDDTGMYYCARDPGTDYFDYWGQGTTLTVSS VL: DIVMTQSHKFMSTSIGDRVSISCKASQDVSIDVSWYQQKPGQSPTLLIYSASYRYIGVPDRFTGSGSGTAFTFTISSVQAEDLAIYYCQQHFTTPLTFGAGTKLELKR"
test_value = "0.06 OD (A492)"

[[record]]
binder = "anti-GP73 monoclonal antibody 1A-4246 (antibody, V domains shown, Biotin labelled in some assays; also called mAb 1A-4246; 1A-4246-Bt) VH: EVMLVESGGGLVKPGGSLKLSCAASGFTFSSYAMSWVRLTPEKRLEWVATISSGSSYTYYPDSVKGRFTISRDNVKSTLYLQMSSLRSEDTAMYYCARNWDGELHYYAMDYWGQGTSVTVSS VL: QIVLTQSPAIMSASLGERVTMTCTASSSVSSSYLHWYQQKPGSSPKLWVYSTSSLASGVPARFSGSGSGTSYSLTINNMEAEDAATYFCHQYHRSPYTFGGGTKLEIKR"
test_value = "0.04 OD (A492)"


Assign BSA Background OD (A492) to the following record: anti-GP73 monoclonal antibody 1B-3440 (antibody, V domains shown, Biotin labelled in some assays; also called mAb 1B-3440; 1B-3440-Bt) VH: EVQLVETGGGLVQPKGSLKLSCAASGFTFNTNAMNWVRQAPGKGLEWVARIRTKRYNYTTFYADSVKDRFTISRDDSQSMLFLQMNNLKTEDTAMYYCVTGGTGTFDYWGQGTTLTVSS VL: EIVLTQSPTTMPASPGEKVTFTCSASSGISSNYLHWYQLKPGFSPKLLIYRTSNLASGVPARFSGGGSGTSYSLTIGTMEAEDVATYYCQQGFSIPLTFGAGTKLELKR
0.09 OD (A492)

Data provenance: patent US20140271651A1
